Quick list: protein stability index per entry.
B1: ESRRA (parent)
chain: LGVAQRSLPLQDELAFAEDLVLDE

- Variants of: B1
- protocol.summary: protein stability index of a GFP-peptide fusion (GPS, HEK-293T) (PSI 1-6); higher = more stable;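 note: lentivirally expressed fusions sorted by FACS into six bins by GFP to DsRed ratio, PSI derived from sequencing read proportions per bin multiplied by bin number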
- run.conditions: c terminus: a fixed tail appended
// no unit, no text: just the number

# variant.notation, protein stability index
measured = [
    ("G2N", 3.08),
    ("L8I", 3.03),
    ("E18P", 4.64),
    ("G2H", 2.78),
]

For the next question, use this variant.
Exercise: Return reported protein stability index; argument: Q11G
Key: 3.38
